# Study system: Somatostatin receptor 5 (SSTR5) (human), P35346
# Sequence (P35346 whole entry): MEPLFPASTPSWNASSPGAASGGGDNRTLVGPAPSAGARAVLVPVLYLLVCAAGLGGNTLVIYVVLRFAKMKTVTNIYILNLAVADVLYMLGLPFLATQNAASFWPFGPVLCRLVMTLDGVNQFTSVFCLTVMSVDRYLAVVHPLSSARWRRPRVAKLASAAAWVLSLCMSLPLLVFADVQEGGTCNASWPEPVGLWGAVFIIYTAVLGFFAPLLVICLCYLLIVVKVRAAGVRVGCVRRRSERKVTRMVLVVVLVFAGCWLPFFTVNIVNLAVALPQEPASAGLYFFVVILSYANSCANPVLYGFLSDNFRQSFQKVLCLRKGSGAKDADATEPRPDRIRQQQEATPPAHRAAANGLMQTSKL
# Test context: L-mesityl alanine (2,4,6-trimethylphenylalanine, Msa) in place of Phe6; D-Trp at position 7; disulfide bridge between the two cysteines
Experimental readout: IC50 (nM)
# number only, unit nM dropped from output

Query :: # query: IC50 of entry PCKNFFWKTFTSCK [Cortistatin analogue 2]
Result :: 33

These data points were gathered from paper PMC7994712.
